Listed next: entries and their corresponding MIC.
# Tested on: Pseudomonas aeruginosa
# test-details: Antimicrobial activity against Pseudomonas aeruginosa ATCC 9027 assessed as inhibition of microbial growth incubated for 24 hrs
# Type: functional
# assay-context: ATCC 9027, 24 h
// note: answer is a bare numeric in µM

CC(=O)N[C@@H](CCCCN)c1nc(C)sc1C(=O)N[C@@H](C)c1nc(C)sc1C(=O)N[C@@H](C)c1nc(CCCCN)sc1C(=O)N[C@@H](C)c1nc(C)sc1C(=O)N[C@@H](C)c1nc(CCCCN)sc1C(=O)N[C@@H](CCCCN)c1nc(C)sc1C(=O)N[C@@H](C)c1nc(CCCCN)sc1C(=O)N[C@@H](CCCCN)c1nc(C)sc1C(=O)N[C@@H](C)c1nc(C)sc1C(=O)N[C@@H](C)c1nc(C)sc1C(=O)N[C@@H](C)c1nc(CCCCN)sc1C(=O)N[C@@H](CCCCN)c1nc(C)sc1C(N)=O	100

Proceed to the following item.
Incoming: State, for Pseudomonas aeruginosa, measured MIC of the molecule listed here: CC(=O)N[C@@H](CCCCN)c1nc(C)sc1C(=O)N[C@@H](C)c1nc(CCCCN)sc1C(=O)N[C@@H](C)c1nc(C)sc1C(=O)N[C@@H](CCCCN)c1nc(C)sc1C(=O)N[C@@H](C)c1nc(CCCCN)sc1C(=O)N[C@@H](C)c1nc(C)sc1C(=O)N[C@@H](CCCCN)c1nc(C)sc1C(=O)N[C@@H](C)c1nc(CCCCN)sc1C(=O)N[C@@H](C)c1nc(C)sc1C(=O)N[C@@H](CCCCN)c1nc(C)sc1C(=O)N[C@@H](C)c1nc(CCCCN)sc1C(=O)N[C@@H](C)c1nc(C)sc1C(N)=O
Outgoing: 3.9
